Just for reference, the supplement of paper PMC3545927 is where these values come from.

Below: a set of entries, each annotated with reported furin cleavage Z-score.
target: furin, P09958; experiment: furin cleavage Z-score vs untreated control; higher = more cleavage, active = 3.5 or more, inactive = 1 or less, 8 variable residues between constant flanks; settings: 7.5 min;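 also: purified furin at 1:10 enzyme:substrate in 50 mM HEPES pH 7.5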
Sequence (P09958 whole entry): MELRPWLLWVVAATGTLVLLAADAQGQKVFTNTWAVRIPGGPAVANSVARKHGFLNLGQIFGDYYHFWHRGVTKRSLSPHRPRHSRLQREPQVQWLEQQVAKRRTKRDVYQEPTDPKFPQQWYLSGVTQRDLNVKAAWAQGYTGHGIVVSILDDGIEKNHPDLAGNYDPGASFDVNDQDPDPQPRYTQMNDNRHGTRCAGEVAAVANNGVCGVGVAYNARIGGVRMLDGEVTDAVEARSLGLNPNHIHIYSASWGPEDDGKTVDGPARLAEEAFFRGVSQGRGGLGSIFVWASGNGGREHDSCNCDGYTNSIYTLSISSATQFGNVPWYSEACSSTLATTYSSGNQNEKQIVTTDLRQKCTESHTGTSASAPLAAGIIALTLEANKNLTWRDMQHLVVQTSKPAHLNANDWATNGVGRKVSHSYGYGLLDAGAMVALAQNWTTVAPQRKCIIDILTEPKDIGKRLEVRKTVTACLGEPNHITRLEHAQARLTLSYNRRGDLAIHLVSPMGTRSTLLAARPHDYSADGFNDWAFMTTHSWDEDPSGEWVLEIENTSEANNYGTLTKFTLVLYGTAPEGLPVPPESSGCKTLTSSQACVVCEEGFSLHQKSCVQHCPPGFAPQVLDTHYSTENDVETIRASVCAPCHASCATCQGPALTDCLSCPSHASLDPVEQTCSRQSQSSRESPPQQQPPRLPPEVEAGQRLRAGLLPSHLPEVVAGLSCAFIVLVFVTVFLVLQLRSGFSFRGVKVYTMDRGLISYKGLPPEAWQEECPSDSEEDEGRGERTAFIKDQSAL
The other results are listed elsewhere or left out. The hit rate among all sequences tested is not known here.
I only need the number, thanks.

Worked examples follow.
1) CAEVARLRRGAGNASASA [FS-1122] :: 0.497
2) CARSERNRRGAGNASASA [FS-1406] :: 12.7
3) CARHMRMTRSAGNASASA [FS-857] :: 13.4
4) CAGDDLVVICAGNASASA [HC1529] :: -1.44
5) CARHHRAAATAGNASASA [FS-2142] :: -0.187

Given CARRRRLLIKAGNASASA [FS-2597] , state its recorded furin cleavage Z-score. -0.832

What about this sequence? CAVVCCSMSVAGNASASA [HC2090] -0.627

Repeat with CARSRRVQCHAGNASASA [FS-2091] -0.135

What would you report for CARMWRKTRSAGNASASA [FS-955] ? 13.5
